Assignment: determine reported pEC50 for the given molecules.
target.system: Nociceptin receptor (Homo sapiens, UniProt P41146)
Sequence (P41146 whole entry, the tested form may be a part): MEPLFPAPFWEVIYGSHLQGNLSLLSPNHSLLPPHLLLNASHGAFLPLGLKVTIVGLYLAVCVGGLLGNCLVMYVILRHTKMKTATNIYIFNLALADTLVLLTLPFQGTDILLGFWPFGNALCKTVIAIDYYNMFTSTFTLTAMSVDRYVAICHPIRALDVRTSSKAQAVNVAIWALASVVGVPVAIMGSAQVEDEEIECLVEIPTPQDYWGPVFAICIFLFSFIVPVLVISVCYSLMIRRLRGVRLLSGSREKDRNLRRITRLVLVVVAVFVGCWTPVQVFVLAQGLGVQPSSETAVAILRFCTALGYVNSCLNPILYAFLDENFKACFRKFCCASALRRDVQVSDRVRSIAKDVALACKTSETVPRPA
protocol.details: Activity at human ORL1-Galpha fusion receptor in COS7 cells assessed as stimulation of [35S]GTP-gamma-S binding
Reminder that pEC50 means the negative base-10 logarithm of the concentration expressed in mol/L.

query: I am curious: what pEC50 value has been reported for CC[C@H](C)[C@H](NC(=O)[C@H](CCCNC(=N)N)NC(=O)[C@H](Cc1ccc(O)cc1)NC(=O)[C@H](Cc1ccc(O)cc1)NC(=O)[C@H](CCCNC(=N)N)NC(=O)C(C)C)C(=O)N[C@@H](CCCCN)C(N)=O ?
result: 7.35

query: I am curious: what pEC50 value has been reported for CC[C@H](C)[C@H](NC(=O)[C@H](CCCN=C(N)N)NC(=O)[C@H](Cc1ccc(O)cc1)NC(=O)[C@H](Cc1ccc(O)cc1)NC(=O)[C@H](CCCN=C(N)N)NC(=O)C12CC3CC(CC(C3)C1)C2)C(=O)N[C@@H](CCCCN)C(N)=O ?
result: 7.72

query: I am curious: what pEC50 value has been reported for CC[C@H](C)[C@H](NC(=O)[C@H](CCCNC(=N)N)NC(=O)[C@H](Cc1ccc(O)cc1)NC(=O)[C@H](Cc1ccc(O)cc1)NC(=O)[C@H](CCCNC(=N)N)NC(=O)c1ccccc1)C(=O)N[C@@H](CCCCN)C(N)=O ?
result: 7.74

query: I am curious: what pEC50 value has been reported for CCCC(C)C(=O)N[C@@H](CCCNC(=N)N)C(=O)N[C@@H](Cc1ccc(O)cc1)C(=O)N[C@@H](Cc1ccc(O)cc1)C(=O)N[C@@H](CCCNC(=N)N)C(=O)N[C@H](C(=O)N[C@@H](CCCCN)C(N)=O)[C@@H](C)CC (stereo partly drawn) ?
result: 7.62

query: I am curious: what pEC50 value has been reported for CC[C@H](C)[C@H](NC(=O)[C@H](CCCNC(=N)N)NC(=O)[C@H](Cc1ccc(O)cc1)NC(=O)[C@H](Cc1ccc(O)cc1)NC(=O)[C@H](CCCNC(=N)N)NC(=O)C(C)(C)C)C(=O)N[C@@H](CCCCN)C(N)=O ?
result: 7.01

query: I am curious: what pEC50 value has been reported for CCCC(=O)N[C@@H](CCCNC(=N)N)C(=O)N[C@@H](Cc1ccc(O)cc1)C(=O)N[C@@H](Cc1ccc(O)cc1)C(=O)N[C@@H](CCCNC(=N)N)C(=O)N[C@H](C(=O)N[C@@H](CCCCN)C(N)=O)[C@@H](C)CC ?
result: 7.49

query: I am curious: what pEC50 value has been reported for CCC(C)C(=O)N[C@@H](CCCNC(=N)N)C(=O)N[C@@H](Cc1ccc(O)cc1)C(=O)N[C@@H](Cc1ccc(O)cc1)C(=O)N[C@@H](CCCNC(=N)N)C(=O)N[C@H](C(=O)N[C@@H](CCCCN)C(N)=O)[C@@H](C)CC (stereo partly drawn) ?
result: 7.28

query: I am curious: what pEC50 value has been reported for CC[C@H](C)[C@H](NC(=O)[C@H](CCCN=C(N)N)NC(=O)[C@H](Cc1ccc(O)cc1)NC(=O)[C@H](Cc1ccc(O)cc1)NC(=O)[C@H](CCCN=C(N)N)NC(=O)CC(C)(C)C)C(=O)N[C@@H](CCCCN)C(N)=O ?
result: 7.33

###

Assignment: determine reported IC50 for the given compounds.
target.system: Nociceptin receptor (Homo sapiens)
protocol.details: Displacement of [3H]nociceptin from human ORL1-Galpha fusion receptor in COS7 cells
Assay type: cell-based, COS-7
Respond with the bare value in nM.

query: Return IC50 measured with Nociceptin receptor (Homo sapiens) given this compound: CCCCCC(=O)N[C@@H](CCCNC(=N)N)C(=O)N[C@@H](Cc1ccc(O)cc1)C(=O)N[C@@H](Cc1ccc(O)cc1)C(=O)N[C@@H](CCCNC(=N)N)C(=O)N[C@H](C(=O)N[C@@H](CCCCN)C(N)=O)[C@@H](C)CC
result: 21.7

query: Return IC50 measured with Nociceptin receptor (Homo sapiens) given this compound: CC[C@H](C)[C@H](NC(=O)[C@H](CCCNC(=N)N)NC(=O)[C@H](Cc1ccc(O)cc1)NC(=O)[C@H](Cc1ccc(O)cc1)NC(=O)[C@H](CCCNC(=N)N)NC(=O)C(C)C)C(=O)N[C@@H](CCCCN)C(N)=O
result: 2.81

query: Return IC50 measured with Nociceptin receptor (Homo sapiens) given this compound: CC[C@H](C)[C@H](NC(=O)[C@H](CCCN=C(N)N)NC(=O)[C@H](Cc1ccc(O)cc1)NC(=O)[C@H](Cc1ccc(O)cc1)NC(=O)[C@H](CCCN=C(N)N)NC=O)C(=O)N[C@@H](CCCCN)C(N)=O
result: 0.66

query: Return IC50 measured with Nociceptin receptor (Homo sapiens) given this compound: CC[C@H](C)[C@H](NC(=O)[C@H](CCCN=C(N)N)NC(=O)[C@H](Cc1ccc(O)cc1)NC(=O)[C@H](Cc1ccc(O)cc1)NC(=O)[C@H](CCCN=C(N)N)NC(=O)C(C)(C)CC)C(=O)N[C@@H](CCCCN)C(N)=O
result: 45.5

query: Return IC50 measured with Nociceptin receptor (Homo sapiens) given this compound: CC[C@H](C)[C@H](NC(=O)[C@H](CCCNC(=N)N)NC(=O)[C@H](Cc1ccc(O)cc1)NC(=O)[C@H](Cc1ccc(O)cc1)NC(=O)[C@@H](N)CCCNC(=N)N)C(=O)N[C@@H](CCCCN)C(N)=O
result: 218

query: Return IC50 measured with Nociceptin receptor (Homo sapiens) given this compound: CC[C@H](C)[C@H](NC(=O)[C@H](CCCNC(=N)N)NC(=O)[C@H](Cc1ccc(O)cc1)NC(=O)[C@H](Cc1ccc(O)cc1)NC(=O)[C@H](CCCNC(=N)N)NC(=O)c1ccccc1)C(=O)N[C@@H](CCCCN)C(N)=O
result: 14.7

query: Return IC50 measured with Nociceptin receptor (Homo sapiens) given this compound: CC[C@H](C)[C@H](NC(=O)[C@H](CCCN=C(N)N)NC(=O)[C@H](Cc1ccc(O)cc1)NC(=O)[C@H](Cc1ccc(O)cc1)NC(=O)[C@H](CCCN=C(N)N)NC(=O)C12CC3CC(CC(C3)C1)C2)C(=O)N[C@@H](CCCCN)C(N)=O
result: 3.42

query: Return IC50 measured with Nociceptin receptor (Homo sapiens) given this compound: CCCCC(=O)N[C@@H](CCCN=C(N)N)C(=O)N[C@@H](Cc1ccc(O)cc1)C(=O)N[C@@H](Cc1ccc(O)cc1)C(=O)N[C@@H](CCCN=C(N)N)C(=O)N[C@H](C(=O)N[C@@H](CCCCN)C(N)=O)[C@@H](C)CC
result: 5.67

query: Return IC50 measured with Nociceptin receptor (Homo sapiens) given this compound: CCC(C)C(=O)N[C@@H](CCCNC(=N)N)C(=O)N[C@@H](Cc1ccc(O)cc1)C(=O)N[C@@H](Cc1ccc(O)cc1)C(=O)N[C@@H](CCCNC(=N)N)C(=O)N[C@H](C(=O)N[C@@H](CCCCN)C(N)=O)[C@@H](C)CC (some centres undefined)
result: 21.3

###

target.system: Nociceptin receptor (Homo sapiens, UniProt P41146)
protocol.details: Activity at human ORL1-Galpha fusion receptor in COS7 cells assessed as stimulation of [35S]GTP-gamma-S binding
endpoint.name: pEC50
Reminder that pEC50 means the negative base-10 logarithm of the concentration expressed in mol/L.

query: I am curious: what pEC50 value has been reported for CC[C@H](C)[C@H](NC(=O)[C@H](CCCN=C(N)N)NC(=O)[C@H](Cc1ccc(O)cc1)NC(=O)[C@H](Cc1ccc(O)cc1)NC(=O)[C@H](CCCN=C(N)N)NC=O)C(=O)N[C@@H](CCCCN)C(N)=O ?
result: 7.63

query: I am curious: what pEC50 value has been reported for CC[C@H](C)[C@H](NC(=O)[C@H](CCCN=C(N)N)NC(=O)[C@H](Cc1ccc(O)cc1)NC(=O)[C@H](Cc1ccc(O)cc1)NC(=O)[C@H](CCCN=C(N)N)NC(=O)C(C)(C)CC)C(=O)N[C@@H](CCCCN)C(N)=O ?
result: 7.75

query: I am curious: what pEC50 value has been reported for CCC(=O)N[C@@H](CCCNC(=N)N)C(=O)N[C@@H](Cc1ccc(O)cc1)C(=O)N[C@@H](Cc1ccc(O)cc1)C(=O)N[C@@H](CCCNC(=N)N)C(=O)N[C@H](C(=O)N[C@@H](CCCCN)C(N)=O)[C@@H](C)CC ?
result: 7.56

###

target.system: Nociceptin receptor (Homo sapiens, UniProt P41146)
protocol.details: Displacement of [3H]nociceptin from human ORL1-Galpha fusion receptor in COS7 cells
endpoint.name: IC50 (nM)
Respond with the bare value in nM.

query: I am curious: what IC50 value has been reported for CCCC(C)C(=O)N[C@@H](CCCNC(=N)N)C(=O)N[C@@H](Cc1ccc(O)cc1)C(=O)N[C@@H](Cc1ccc(O)cc1)C(=O)N[C@@H](CCCNC(=N)N)C(=O)N[C@H](C(=O)N[C@@H](CCCCN)C(N)=O)[C@@H](C)CC (some centres undefined) ?
result: 47.3

query: I am curious: what IC50 value has been reported for CC[C@H](C)[C@H](NC(=O)[C@H](CCCN=C(N)N)NC(=O)[C@H](Cc1ccc(O)cc1)NC(=O)[C@H](Cc1ccc(O)cc1)NC(=O)[C@H](CCCN=C(N)N)NC(=O)CC(C)(C)C)C(=O)N[C@@H](CCCCN)C(N)=O ?
result: 16.9

query: I am curious: what IC50 value has been reported for CC[C@H](C)[C@H](NC(=O)[C@H](CCCNC(=N)N)NC(=O)[C@H](Cc1ccc(O)cc1)NC(=O)[C@H](Cc1ccc(O)cc1)NC(=O)[C@H](CCCNC(=N)N)NC(=O)CC(C)C)C(=O)N[C@@H](CCCCN)C(N)=O ?
result: 7.42

query: I am curious: what IC50 value has been reported for CCC(=O)N[C@@H](CCCNC(=N)N)C(=O)N[C@@H](Cc1ccc(O)cc1)C(=O)N[C@@H](Cc1ccc(O)cc1)C(=O)N[C@@H](CCCNC(=N)N)C(=O)N[C@H](C(=O)N[C@@H](CCCCN)C(N)=O)[C@@H](C)CC ?
result: 1.7
